Known log10 of EC50 of a selection of molecules
measured.target: sGC α1/β1 heterodimer stably expressed in CHO-K1 cells (CHO-K1/sGC) (Homo sapiens, UniProt Q02108+Q02153)
Construct: expressed in transfected cells
Sequence (Q02108 1-690): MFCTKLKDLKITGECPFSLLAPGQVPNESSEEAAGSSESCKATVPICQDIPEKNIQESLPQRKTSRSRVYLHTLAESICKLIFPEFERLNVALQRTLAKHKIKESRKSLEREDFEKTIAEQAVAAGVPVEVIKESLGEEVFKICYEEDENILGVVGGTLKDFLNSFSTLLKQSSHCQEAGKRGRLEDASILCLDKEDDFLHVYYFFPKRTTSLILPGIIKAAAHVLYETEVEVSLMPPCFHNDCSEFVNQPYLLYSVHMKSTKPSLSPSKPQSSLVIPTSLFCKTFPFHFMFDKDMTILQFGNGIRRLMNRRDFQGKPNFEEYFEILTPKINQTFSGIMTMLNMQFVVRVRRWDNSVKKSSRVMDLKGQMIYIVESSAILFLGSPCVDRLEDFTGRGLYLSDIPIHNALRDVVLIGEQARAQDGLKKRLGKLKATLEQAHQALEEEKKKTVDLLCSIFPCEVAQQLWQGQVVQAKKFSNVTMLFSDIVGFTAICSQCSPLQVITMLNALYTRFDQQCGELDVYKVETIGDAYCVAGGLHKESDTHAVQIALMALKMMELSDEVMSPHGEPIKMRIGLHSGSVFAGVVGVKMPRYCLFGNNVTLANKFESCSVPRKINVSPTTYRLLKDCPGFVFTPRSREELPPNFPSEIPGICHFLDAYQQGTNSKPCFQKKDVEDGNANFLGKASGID
Sequence (Q02153 1-619): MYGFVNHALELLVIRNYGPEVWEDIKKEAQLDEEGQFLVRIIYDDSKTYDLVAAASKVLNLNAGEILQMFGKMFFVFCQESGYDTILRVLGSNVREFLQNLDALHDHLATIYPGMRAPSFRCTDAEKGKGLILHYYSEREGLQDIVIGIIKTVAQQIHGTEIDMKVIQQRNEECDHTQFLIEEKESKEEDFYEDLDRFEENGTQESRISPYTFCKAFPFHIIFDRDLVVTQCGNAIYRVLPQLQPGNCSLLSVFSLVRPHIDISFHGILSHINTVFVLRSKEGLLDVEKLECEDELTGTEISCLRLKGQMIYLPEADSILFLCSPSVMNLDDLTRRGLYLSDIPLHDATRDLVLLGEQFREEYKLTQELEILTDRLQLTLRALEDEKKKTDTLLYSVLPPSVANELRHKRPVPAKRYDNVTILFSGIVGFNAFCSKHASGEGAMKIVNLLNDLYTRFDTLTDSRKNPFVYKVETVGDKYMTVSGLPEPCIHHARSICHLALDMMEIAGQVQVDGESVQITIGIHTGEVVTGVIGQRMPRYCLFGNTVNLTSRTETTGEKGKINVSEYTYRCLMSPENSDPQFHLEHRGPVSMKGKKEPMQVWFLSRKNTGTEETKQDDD
assay.procedure: Cell-based sGC functional assay (CASA assay), cGMP generation by HTRF
settings: CHO-K1/sGC cells, 1 hr at 37° C., 4P fit; presence or absence of DETA-NO not given; read-out: IP (nM) (inflection point)
Recall that a logarithmic scale is used here: each number is log10 of EC50 in nM.

Here is how some molecules turned out for log10 of EC50.
In [3]: df
Out[3]:
                                   molecule  reported_measurement
0  CC1(c2ccc(F)cc2)C(=O)Nc2nc(-c3cn4ccnc4c(OC4CCCCC4)n3)nc(N)c21 (centres unmarked) [Example 22A]                  2.23
1  CC1(c2ccccc2)C(=O)Nc2nc(-c3cn4ccnc4c(Oc4c(F)ccc(F)c4F)n3)nc(N)c21 (centres unmarked)                  3.01

For this molecule ( CCCOc1nc(-c2nc(N)c3c(n2)NC(=O)C3(C)c2ccc(F)cc2)cn2ccnc12 (centres unmarked) [Example 39A] ), measured log10 of EC50 is 2.17

For this molecule ( CC1(c2ccc(F)cc2)C(=O)Nc2nc(-c3cn4ccnc4c(Oc4ccc(F)c(F)c4)n3)nc(N)c21 (centres unmarked) [Example 18A] ), measured log10 of EC50 is 1.00

For this molecule ( CC1(c2ccc(Cl)cc2)C(=O)Nc2nc(-c3cn4ccnc4c(NCC4CCCCO4)n3)nc(N)c21 (single isomer, unassigned; fast eluting) [Example 71A] ), measured log10 of EC50 is 2.24

For this molecule ( CCCSc1nc(-c2nc(N)c3c(n2)NC(=O)C3(C)c2ccc(F)cc2)cn2ccnc12 (centres unmarked) [Example 62A] ), measured log10 of EC50 is 2.15

For this molecule ( CC1(c2ccc(F)cc2)C(=O)Nc2nc(-c3cn4ccnc4c(Oc4ccc(F)cc4)n3)nc(N)c21 (centres unmarked) [Example 20A] ), measured log10 of EC50 is 1.62

For this molecule ( CC1(c2ccc(F)cc2)C(=O)Nc2nc(-c3cn4ccnc4c(Oc4ccc(F)c(F)c4F)n3)nc(N)c21 (centres unmarked) [Example 16A] ), measured log10 of EC50 is 1.57

For this molecule ( CC1(c2ccc(Cl)cc2)C(=O)Nc2nc(-c3cn4ccnc4c(NCC4CCCOC4)n3)nc(N)c21 (single isomer, unassigned; slow eluting) [Example 72B] ), measured log10 of EC50 is 2.61

For this molecule ( CC(Nc1nc(-c2nc(N)c3c(n2)NC(=O)C3(C)c2ccc(Cl)cc2)cn2ccnc12)c1ccccc1 (centres unmarked) [Example 74] ), measured log10 of EC50 is 2.36

For this molecule ( CC1(c2ccccc2)C(=O)Nc2nc(-c3cn4ccnc4c(Oc4cc(F)cc(F)c4F)n3)nc(N)c21 (centres unmarked) [Example 12B] ), measured log10 of EC50 is 1.67

For this molecule ( CC1(c2ccc(Cl)cc2)C(=O)Nc2nc(-c3cn4ccnc4c(OCCC4CC4)n3)nc(N)c21 (centres unmarked) [Example 50A] ), measured log10 of EC50 is 1.08

For this molecule ( CC1(c2ccc(Cl)cc2)C(=O)Nc2nc(-c3cn4ccnc4c(OCc4ccccc4)n3)nc(N)c21 (centres unmarked) [Example 48A] ), measured log10 of EC50 is 1.41

For this molecule ( CC1(c2ccc(Cl)cc2)C(=O)Nc2nc(-c3cn4ccnc4c(NCC4CCCCO4)n3)nc(N)c21 (single isomer, unassigned; slow eluting) [Example 71B] ), measured log10 of EC50 is 2.16
